The following sequences are shown together with reported Positive rate Ulcerative colitis patients values.
Test system: Crohn's disease antibody (serum IgG)
Test: ELISA using each branched multiple antigenic peptide (MAP peptide) as the antigen
Assay type: binding, human
Details: 20 ulcerative colitis patient sera; cut-off mean OD+5SD of 48 healthy volunteer sera
outcomeMeasure: Positive rate Ulcerative colitis patients

| residueString | measValue |
| --- | --- |
| AEGELGLLAQQMDYADPA [CDP-1] | 0% (0/20) |
| AEGELYRWLPPSSAGDPA [CDP-2] | 5% (1/20) |
| AEGELGGIYQDLVSGDPA [CDP-4] | 5% (1/20) |
| AEGELRQSDGQYQMGDPA [CDP-3] | 0% (0/20) |
